TARGET ENTITY: T1, IGSF8 extracellular domain (ED) (Homo sapiens (Human), UniProt Q969P0 28-579)
T1 construct: also called IGSF8 ECD
T1 sequence: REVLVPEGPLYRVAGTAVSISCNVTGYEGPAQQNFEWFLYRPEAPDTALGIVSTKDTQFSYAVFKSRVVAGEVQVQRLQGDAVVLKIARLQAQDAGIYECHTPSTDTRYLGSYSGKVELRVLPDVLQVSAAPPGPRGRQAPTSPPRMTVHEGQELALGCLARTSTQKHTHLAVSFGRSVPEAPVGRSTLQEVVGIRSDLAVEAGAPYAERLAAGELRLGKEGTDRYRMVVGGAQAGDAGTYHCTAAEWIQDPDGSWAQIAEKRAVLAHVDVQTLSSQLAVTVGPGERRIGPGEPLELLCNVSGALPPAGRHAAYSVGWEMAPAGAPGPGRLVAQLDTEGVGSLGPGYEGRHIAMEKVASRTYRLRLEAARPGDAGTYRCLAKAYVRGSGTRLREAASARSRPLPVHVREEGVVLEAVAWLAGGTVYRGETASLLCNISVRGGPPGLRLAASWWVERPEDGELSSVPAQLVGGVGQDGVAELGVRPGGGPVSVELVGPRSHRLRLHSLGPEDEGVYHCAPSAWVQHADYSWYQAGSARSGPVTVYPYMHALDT
ASSAY COMMENT: ELISA on IGSF8 extracellular domain
TEST READOUT: binding result

[
  {
    "BINDER": "Antibody C5 (antibody, V domains shown, also called anti-IGSF8 C5) VH: EVQLVQSGGGLVQPGGSLRLSCAASGFTFSRYRMAWVRQAPGKGLEWVSNITRSGGVTRYADSVKGRFTISRDNSKNTLYLQMNSLRAEDTAVYYCARDPNRVTAISSHYGMDVWGKGTTVTVSS VL: EIVLTQSPSTLSASVGDRVTISCRASQSISRWLAWYQQKPGQAPRLLIYDASNRATGVPARFSVSGSETDSTLTISSLEPEDFAMYYCQQRSNWPPMYTFGQGTKLEIKR",
    "MEASUREMENT": "binds"
  },
  {
    "BINDER": "Antibody C10 (antibody, V domains shown, also called anti-IGSF8 C10) VH: EVQLLESGGGLVQPGGSLRLSCAASGFTFSRYRMYWVRQAPGKGLEWVSTISRSGGRTVYADSVKGRFTISRDNSKNTLYLQMNSLRAEDTAVYYCARDATGRHYNGMDVWGQGTLVTV VL: ETTLTQSPATLSVSPGERATLSCRASQSVSSNVAWYQQKPGQAPRLLMFGSGTRATGIPARFSGSGSGTEFTLTISSLQSEDFAAYYCQQYNDWPSFGQGTRVEIKG",
    "MEASUREMENT": "binds"
  },
  {
    "BINDER": "Antibody C4 (antibody, V domains shown, also called anti-IGSF8 C4) VH: QVQLLQSGGGLVQPGGSLRLSCAASGFTFSRYRMGWVRQAPGKGLEWVSSIARSGGRTYYADSVKGRFTISRDNSKNTLYLQMNSLRAEDTAVYYCARGVRYCSSPSCSRGPRYAMDVWGKGTTVTVSS VL: EIVMTQSPSSVSASVGDRVTITCRASQGISSWLAWYQQKPGKAPKLLIYAASSLQSGVPSRFSGSGSGTDFTLTISSLQPEDFATYYCQQANSFPITFGQGTRLEIKR",
    "MEASUREMENT": "binds"
  }
]
